- test-target: UniProt:P0DTD1
- test-protocol: Inhibition of SARS-CoV-2 3CLpro, continuous fluorescence assay with FRET-based substrate UIVT3
- Format: biochemical
- condition-label: FRET substrate UIVT3, 50-200 nM enzyme, pH 7.5, 25° C.
property-name: Activity of SARS-CoV-2 Mpro inhibitors

| compound | Activity of SARS-CoV-2 Mpro inhibitors |
| --- | --- |
| CC(C)C[C@@H](C(=O)N[C@@H](CC1CCCNC1=O)C(=O)C(=O)c1ccccc1)N(C)C(=O)[C@@H](NC(=O)C(F)(F)F)C(C)(C)C (some centres unmarked) | A++ (A++ < 1 μM) |
| COc1cccc2[nH]c(C(=O)N[C@@H](CC(C)C)C(=O)N[C@@H](C[C@@H]3CCNC3=O)C(=O)C(=O)c3ccccc3)cc12 | A++ (A++ < 1 μM) |
| CC(C)C[C@@H](C(=O)N[C@@H](C[C@@H]1CCNC1=O)C(=O)C(=O)c1ccccc1)N(C)C(=O)[C@@H](NC(=O)C(F)(F)F)C(C)(C)C | A+ (A+ < 10 μM) |
| CN(C(=O)[C@@H](NC(=O)C(F)(F)F)C(C)(C)C)[C@H](CC1CCCC1)C(=O)NC(C[C@@H]1CCNC1=O)C(=O)C(=O)c1ccccc1 (some centres unmarked) | A+ (A+ < 10 μM) |

Next compound, Activity of SARS-CoV-2 Mpro inhibitors to be filled in.
stdin: Fill in reported Activity of SARS-CoV-2 Mpro inhibitors for this entry: CC(C)C[C@H](CC(=O)[C@@H](NC(=O)C(F)(F)F)C(C)(C)C)C(=O)N[C@@H](C[C@@H]1CCNC1=O)C(=O)C(=O)c1ccccc1
stdout: A++ (A++ < 1 μM)
